target: Cytochrome P450 2D6 (Homo sapiens) (UniProt P10635); assay: Cytochrome panel assay with activity outcomes; conditions: recombinant CYP, pro-luciferin dealkylation, luminescence, p450-cyp2d6; series mostly up to 57.1 µM
Sequence (P10635 whole entry, looked up): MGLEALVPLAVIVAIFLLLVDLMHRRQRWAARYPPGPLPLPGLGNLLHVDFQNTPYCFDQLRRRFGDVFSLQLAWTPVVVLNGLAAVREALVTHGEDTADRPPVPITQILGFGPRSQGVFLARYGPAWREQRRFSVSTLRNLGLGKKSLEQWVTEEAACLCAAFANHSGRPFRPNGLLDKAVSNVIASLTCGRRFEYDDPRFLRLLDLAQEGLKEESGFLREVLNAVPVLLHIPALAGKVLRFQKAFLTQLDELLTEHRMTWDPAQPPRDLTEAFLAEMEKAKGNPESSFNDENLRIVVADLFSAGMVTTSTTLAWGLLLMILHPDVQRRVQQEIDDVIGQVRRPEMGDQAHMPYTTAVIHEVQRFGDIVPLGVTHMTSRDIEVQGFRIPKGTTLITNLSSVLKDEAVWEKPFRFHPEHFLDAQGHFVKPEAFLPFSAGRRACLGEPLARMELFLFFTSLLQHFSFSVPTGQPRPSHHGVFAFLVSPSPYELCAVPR
The whole screen tested about 16,000 compounds, of which about 2,600 (16%) were called active. Not shown: some 20% with an inconclusive outcome. The list is a sample of the results.
parameter-measured: AC50

Worked set:
Input line: // AC50 lookup, key: CN(C)S(=O)(=O)c1ccc(NC(=O)COC(=O)c2ccccn2)cc1
Output line: inactive

Input line: // AC50 lookup, key: CCOC(=O)c1[nH]c(C(=O)O)c(CCC(=O)OC)c1C
Output line: inactive

Input line: // AC50 lookup, key: Cc1ccc(Oc2nc(-c3ccccc3)ncc2S(C)(=O)=O)cc1
Output line: inactive

Input line: // AC50 lookup, key: CCN(CC)c1ccc(N2C(=O)/C(=C/c3cccnc3)SC2=S)cc1
Output line: inactive

Next:
Input line: // AC50 lookup, key: COc1cccc(C(=O)N(C)c2nnc(-c3ccncc3)s2)c1
Output line: 2 µM (active)

Input line: // AC50 lookup, key: CN(C)S(=O)(=O)c1cccc(NC(=O)COC(=O)c2ccc(Br)o2)c1
Output line: inactive

Input line: // AC50 lookup, key: Cc1nnc(NC(=O)c2cccc(NC(=O)C(C)C)c2)s1
Output line: inactive

Input line: // AC50 lookup, key: CCOC(=O)c1ccc(-c2ccc(CO)o2)cc1
Output line: inactive

---

biological target: Cytochrome P450 2D6 (Homo sapiens) (UniProt P10635); experiment: Cytochrome panel assay with activity outcomes; details: recombinant CYP, pro-luciferin dealkylation, luminescence, p450-cyp2d6; series mostly up to 57.1 µM
Screen size: about 16,000 compounds; about 2,600 (16%) were called active. About 20% were inconclusive and are not listed. The call rests on the fitted dose curve; in most records, active means well fitted curve in the direction sought with a large enough effect; inconclusive means small, poorly fitted or top-dose-only effect, or effect the other way; inactive means no such curve, though single readings can be large or run the other way. Only a sample is shown.
In this exercise, the only acceptable responses are active, inactive

Input line: Write down the call the test reported for this molecule. Item: CCc1ccc(/C=C\C(=O)N2CCc3ccccc3C2)cc1
Output line: inactive

Input line: Write down the call the test reported for this molecule. Item: CSc1ccccc1N1CCN(C(=O)Nc2ccc3c(c2)NC(=O)CO3)CC1
Output line: inactive

Input line: Write down the call the test reported for this molecule. Item: O=C(CSc1nnc(CNc2ccccc2)o1)N1CCCc2ccccc21
Output line: inactive

Next:
Input line: Write down the call the test reported for this molecule. Item: O=C1C=C(NCC2CCCO2)C2(CCCCC2)O1 (stereo not given)
Output line: inactive

Input line: Write down the call the test reported for this molecule. Item: CC1=C(C#N)C(Nc2ccc(Cl)cn2)(C(F)(F)F)C(=O)N1 (stereo not given)
Output line: inactive

Input line: Write down the call the test reported for this molecule. Item: O=C(CSc1nc(-c2ccccc2)cs1)N1CCc2ccccc21
Output line: inactive

Input line: Write down the call the test reported for this molecule. Item: COc1ccc2cc(CCC(C)=O)ccc2c1
Output line: inactive

Input line: Write down the call the test reported for this molecule. Item: c1ccc2c(CSCCc3ccncc3)cccc2c1
Output line: active

Input line: Write down the call the test reported for this molecule. Item: COC(=O)c1nnn(Cc2ccccc2)c1N
Output line: inactive

---

Target: Cytochrome P450 2D6 (Homo sapiens) (UniProt P10635)
Assay: Cytochrome panel assay with activity outcomes
Details: recombinant CYP, pro-luciferin dealkylation, luminescence, p450-cyp2d6; series mostly up to 57.1 µM
Method: The P450 gene superfamily is involved in the metabolism and clearance of xenobiotics. This assay used various human CYP P450 isozymes to measure the dealkylation of various pro-luciferin substrates to luciferin. The luciferin is then measured by luminescence after the addition of a luciferase detection reagent. […] Inhibitors and some substrates limit the production of luciferin, and decrease measured luminescence. […] 8, Detection, 1 sec, ViewLux luminescent read […]
Hit rate of the full screen: of about 16,000 compounds, about 2,600 (16%) were called active. Not shown: some 20% with an inconclusive outcome. The call rests on the fitted dose curve; in most records, active means well fitted curve in the direction sought with a large enough effect; inconclusive means small, poorly fitted or top-dose-only effect, or effect the other way; inactive means no such curve, though single readings can be large or run the other way. Not all results are given here.
In this exercise, the only acceptable responses are Yes = active, No = inactive

Some entries whose results are on file:
Input line: Write down the call the test reported for this compound. Item: N#Cc1cccc(-c2nc3cnc(N4CCOCC4)nc3n(C3CC3)c2=O)c1
Output line: No

Input line: Write down the call the test reported for this compound. Item: COc1ccc(-n2c(=S)[nH]c3cc(C(=O)NCCCN4CCCC4=O)ccc3c2=O)cc1
Output line: No

Input line: Write down the call the test reported for this compound. Item: COc1ccc2c(C=Nc3c(C)n(C)n(-c4ccccc4)c3=O)c(O)n(Cc3ccco3)c(=O)c2c1
Output line: No

Input line: Write down the call the test reported for this compound. Item: CC(=O)NCCNc1nc(-c2ccc3c(c2)OCO3)nc2ccccc12
Output line: Yes

Input line: Write down the call the test reported for this compound. Item: c1cncc(CNc2nc(-c3ccc4c(c3)OCO4)nc3ccccc23)c1
Output line: Yes

Input line: Write down the call the test reported for this compound. Item: COCCCNC(=O)C1CC(=O)N(CCc2ccc(OC)c(OC)c2)C1 (stereo not given)
Output line: No

Input line: Write down the call the test reported for this compound. Item: COc1ccc(-n2c(=O)c(-c3ccc(Cl)cc3)nc3cnc(N4CCOCC4)nc32)cc1
Output line: No

Input line: Write down the call the test reported for this compound. Item: CC(C)c1ccc(CN(C(=O)C2COc3ccccc3O2)C2CCS(=O)(=O)C2)cc1 (stereo not given)
Output line: Yes

Next:
Input line: Write down the call the test reported for this compound. Item: COc1ccccc1CNc1nc(-c2ccc3c(c2)OCO3)nc2ccccc12
Output line: Yes

Input line: Write down the call the test reported for this compound. Item: COCCNc1nc(-c2ccc(C(=O)N(C)C)cc2)nc2ccccc12
Output line: No
